- Test system: BT-549 breast
- assay protocol: NCI-60 one-dose screen, 48 h (100 = growth as untreated, 0 = no growth, -100 = all killed)
- measurement setup: 10 µM unless noted
The panel holds about 83,000 compounds, 20% with a hit somewhere; the sample as a whole holds those more often.

- molecule: "Nc1ccc(-c2nc3cc(Oc4ccc(Oc5ccc6[nH]c(-c7ccc(N)cc7)nc6c5)cc4)ccc3[nH]2)cc1"
  unit of measurement: "%"
  growth: 105
- molecule: "NCCOc1ncccc1/C=C1\\c2ccccc2-c2ccc([N+](=O)[O-])cc21"
  unit of measurement: "%"
  growth: -17.2
- molecule: "COc1ccc(OC)c(NC(=O)/C(C#N)=C/c2ccco2)c1"
  unit of measurement: "%"
  growth: 84.5
- molecule: "FC(F)(F)c1cccc(Nc2nc3ccccc3nc2Nc2cccc(C(F)(F)F)c2)c1"
  unit of measurement: "%"
  growth: 7.74
- molecule: "NC(=O)CSc1nc(-c2ccc(F)cc2)cc(-c2ccco2)n1"
  unit of measurement: "%"
  growth: 99.5
- molecule: "COc1ccc(-c2nsc3c2NC(=O)CC3c2cccc(OC)c2)cc1 (centres undefined)"
  unit of measurement: "%"
  growth: 39.6
- molecule: "COc1ccc(-c2cc(=O)c3c(OC)c4ccoc4c(/C=C/C=O)c3o2)cc1"
  unit of measurement: "%"
  growth: -22.9
- molecule: "O=c1c2cc(F)ccc2sc2c(Nc3ccncc3)nc3ccccc3c12"
  unit of measurement: "%"
  growth: 81.5
- molecule: "COc1cc(C2CC(c3ccc(Nc4nc(NCCO)nc(N5CCOCC5)n4)cc3)=NN2c2cc(Cl)cc(Cl)c2)cc(OC)c1OC (centres undefined)"
  unit of measurement: "%"
  growth: 75.3
- molecule: "COc1ccc2[nH]c(O)c(N=NC(=O)c3oc4ccccc4c3C)c2c1"
  unit of measurement: "%"
  growth: 70.1
- molecule: "Brc1ccc(Nc2nc3ccccc3nc2Nc2ccc(Br)cc2)cc1"
  unit of measurement: "%"
  growth: -12.6
- molecule: "COc1cc(NC(=O)CCSc2nc3ccccc3c(=O)n2Cc2ccccc2)cc(OC)c1OC"
  unit of measurement: "%"
  growth: 86
- molecule: "CN1CCN(Cc2ccc(NC(=O)c3cncc(C#Cc4nc(N)nc5[nH]ncc45)c3)cc2C(F)(F)F)CC1"
  unit of measurement: "%"
  growth: 82.9
- molecule: "COc1cc(C(=O)O/N=C(\\N)Cc2cccc3ccccc23)cc(OC)c1OC"
  unit of measurement: "%"
  growth: 56.4
- molecule: "CCN1C(=O)N(CC)C2Nn3c(s/c(=C\\c4ccccc4F)c3=O)=NC21 (centres undefined)"
  unit of measurement: "%"
  growth: 44.3
- molecule: "O=S1(=O)N(Cc2ccccc2)[C@@H](Cc2ccccc2)[C@H](O)[C@H](O)[C@H](Cc2ccccc2)N1Cc1ccccc1"
  unit of measurement: "%"
  growth: 15.7
- molecule: "NCCOc1ncccc1/C=C1\\c2ccccc2-c2ccc(F)cc21"
  unit of measurement: "%"
  growth: 82.4
- molecule: "CN1CCN(Cc2ccc(C(=O)Nc3cncc(C#Cc4cnc(N)c5ccccc45)c3)cc2C(F)(F)F)CC1"
  unit of measurement: "%"
  growth: 72
- molecule: "CCOC(=O)c1sc(-c2ccc(OS(=O)(=O)C[C@]34CCC(CC3=O)C4(C)C)c(C=O)c2)nc1C"
  unit of measurement: "%"
  growth: -13.5
- molecule: "O=C(CN1C=NC2C(N3CCOCC3)=NC=NC21)c1ccc(Br)cc1 (centres undefined)"
  unit of measurement: "%"
  growth: 103
- molecule: "COc1ccc(-c2c(-c3ccc(OC)c(O)c3)cnc3ncnn23)cc1"
  unit of measurement: "%"
  growth: 102
- molecule: "CC(=O)O[C@@H]1/C=C/C(=O)N[C@@H](C)CCC/C=C/[C@@H]2CCC[C@H]21"
  unit of measurement: "%"
  growth: 117
- molecule: "COC(=O)/C(CCC=C(C)C)=C1\\[C@@H](OC(C)=O)C[C@@]2(C)[C@H]1C[C@@H](O)[C@H]1[C@@]3(C)CC[C@H](NC(=O)c4cnccn4)[C@@H](C)[C@@H]3CC[C@@]12C"
  unit of measurement: "%"
  growth: 100
- molecule: "CCN1C(=O)N(CC)C2C1NN=c1s/c(=C3\\C(=O)N(CC(C)(C)C)c4ccccc43)c(=O)n12 (centres undefined)"
  unit of measurement: "%"
  growth: 21.7
- molecule: "COc1cc(/C=C/C(=O)c2c(C)nc3ccccc3c2/C=C/c2ccccc2)cc(OC)c1OC"
  unit of measurement: "%"
  growth: 6.8
- molecule: "O=S1(=O)N(Cc2ccccc2)[C@@H](Cc2ccccc2)C2O[C@H]2[C@H](Cc2ccccc2)N1Cc1ccccc1 (some centres undefined)"
  unit of measurement: "%"
  growth: 63.1
- molecule: "CCOC(=O)c1c(Cl)c2c(n1Cc1ccccc1)-c1oncc1CCC2"
  unit of measurement: "%"
  growth: 87.6
- molecule: "COc1ccc(-n2c(C(O)c3ccccc3)nn(CN3CCOCC3)c2=S)cc1 (centres undefined)"
  unit of measurement: "%"
  growth: 108
- molecule: "CN(C)/C=C1\\SC(=Nc2ccc(Cl)cc2)NC1=O"
  unit of measurement: "%"
  growth: 104
- molecule: "Cn1cc([C@@H]2Nc3ccc4[nH]ncc4c3[C@H]3[C@H]4CCC(C4)[C@H]32)c(C(F)(F)F)n1"
  unit of measurement: "%"
  growth: 54.6
- molecule: "O=C(CN1C=NC2C(N3CCOCC3)=NC=NC21)c1cccc2ccccc12 (centres undefined)"
  unit of measurement: "%"
  growth: 109
- molecule: "COc1ccc(-c2nocc2-c2cccs2)cc1"
  unit of measurement: "%"
  growth: 105
- molecule: "CC1(C)CC2(C)OC2C2(C1)N=NC(=Nc1ccccc1)O2 (centres undefined)"
  unit of measurement: "%"
  growth: -19.1
- molecule: "COc1cc(/C=C2\\CN(C)C/C(=C\\c3cc(CN4CCCC4)c(O)c(OC)c3)C2=O)cc(CN2CCCC2)c1O"
  unit of measurement: "%"
  growth: 94.1
